Test system: BRCA-1 silenced HeLa cells (HeLa shBRCA1-GFP)
Assay: Proliferation assay in BRCA-1 silenced HeLa cells
Format: cell-based
Conditions: Homo sapiens; BRCA1 silenced HeLa cells, 168 hours; read-out: CC50 in the BRCA1 silenced HeLa cells
Method: Proliferation Assay in BRCA-1 Silenced HeLa Cells Compounds of the present invention were also tested in an anti-proliferative assay in matched pair BRCA1 wt and BRCA1-(shRNA) HeLa cells. […] HeLa shBRCA1-GFP—These are HeLa cells transduced at an MOI of 100 with a Lentivirus containing a shRNA against BRCA-1 and an expression cassette for GFP. BRCA-1 silencing is more than 80% as assessed by Taqman analysis and the cells stably express GFP. […]
Counter-ions that a name gives are not always drawn.
Give CC50 for every item shown.

stdin: Read off the recorded CC50 for CCN1C(=O)CN(C(=O)c2cc(Cc3n[nH]c(=O)c(C(F)(F)F)c3C)ccc2F)C[C@H]1C
stdout: < 50 nM

stdin: Read off the recorded CC50 for Cc1c(Cc2ccc(F)c(C(=O)N3CCC(=O)N(C(C)C)CC3)c2)n[nH]c(=O)c1C [Example 36, trifluoroacetate]
stdout: < 5000 nM

stdin: Read off the recorded CC50 for CCc1c(C)c(Cc2ccc(F)c(C(=O)N3CCN(C4CCCCC4)C(=O)C3)c2)n[nH]c1=O [Example 29, trifluoroacetate]
stdout: < 50 nM

stdin: Read off the recorded CC50 for COc1ccc(CN2C(=O)CN(C(=O)c3cc(Cc4n[nH]c(=O)c(C)c4C)ccc3F)CC2C)cc1 (stereo not shown) [Example 138, trifluoroacetate]
stdout: 50 to 500 nM

* * *

system: BRCA-1 silenced HeLa cells (HeLa shBRCA1-GFP); assay: Proliferation assay in BRCA-1 silenced HeLa cells; type: cell-based; settings: Homo sapiens; BRCA1 silenced HeLa cells, 168 hours; read-out: CC50 in the BRCA1 silenced HeLa cells
Where a name gives a salt, the structure may show the parent alone.
Give CC50 for every item shown.

stdin: Read off the recorded CC50 for Cc1c(Cc2ccc(F)c(C(=O)N3CCN([C@H]4CCCOC4)C(=O)C3)c2)n[nH]c(=O)c1C
stdout: 0.05 to 0.5 µM

stdin: Read off the recorded CC50 for Cc1c(Cc2ccc(F)c(C(=O)N3CCN(C4CCCCCC4)C(=O)C3)c2)n[nH]c(=O)c1C [Example 73, trifluoroacetate]
stdout: < 0.05 µM

stdin: Read off the recorded CC50 for Cc1c(Cc2ccc(F)c(C(=O)N3CCN(C4CCC(F)C4)C(=O)C3)c2)n[nH]c(=O)c1C (stereo not drawn)
stdout: 0.05 to 0.5 µM

stdin: Read off the recorded CC50 for Cc1c(Cc2ccc(F)c(C(=O)N3CCN(c4cccs4)C(=O)C3)c2)n[nH]c(=O)c1C [Example 44, trifluoroacetate]
stdout: < 0.05 µM

stdin: Read off the recorded CC50 for Cc1c(Cc2ccc(F)c(C(=O)N3CC(=O)N(c4ccccc4)C(C)(C)C3)c2)n[nH]c(=O)c1C
stdout: < 0.05 µM

stdin: Read off the recorded CC50 for Cc1c(Cc2ccc(F)c(C(=O)N3CCN(C4CCOC4)C(=O)C3)c2)n[nH]c(=O)c1C (stereo not drawn) [Example 69, trifluoroacetate]
stdout: 0.05 to 0.5 µM

stdin: Read off the recorded CC50 for CC[C@@H](C)N1CCN(C(=O)c2cc(Cc3n[nH]c(=O)c(C)c3C)ccc2F)CC1=O
stdout: < 0.05 µM

stdin: Read off the recorded CC50 for Cc1c(Cc2ccc(F)c(C(=O)N3CC(=O)N4[C@H](CCC[C@H]4C)C3)c2)n[nH]c(=O)c1C (single isomer, unassigned)
stdout: 0.05 to 0.5 µM

stdin: Read off the recorded CC50 for Cc1c(Cc2ccc(F)c(C(=O)N3CCN([C@@H]4CCCOC4)C(=O)C3)c2)n[nH]c(=O)c1C
stdout: < 0.05 µM

stdin: Read off the recorded CC50 for Cc1c(Cc2ccc(F)c(C(=O)N3CCN(C(C)c4nc(C(C)C)no4)C(=O)C3)c2)n[nH]c(=O)c1C (stereo not drawn) [Example 54, trifluoroacetate]
stdout: 0.05 to 0.5 µM

stdin: Read off the recorded CC50 for Cc1c(Cc2ccc(F)c(C(=O)N3CCN(CC(C)(C)O)C(=O)C3)c2)n[nH]c(=O)c1C
stdout: < 5 µM

stdin: Read off the recorded CC50 for Cc1c(Cc2ccc(F)c(C(=O)N3CCN(C4COC5(CCCCC5)C4)C(=O)C3)c2)n[nH]c(=O)c1C (stereo not drawn) [Example 107, trifluoroacetate]
stdout: 0.05 to 0.5 µM

stdin: Read off the recorded CC50 for Cc1c(Cc2ccc(F)c(C(=O)N3CCN(C4CCCOC4)C(=O)C3)c2)n[nH]c(=O)c1C (stereo not drawn) [Example 47, trifluoroacetate]
stdout: 0.05 to 0.5 µM

stdin: Read off the recorded CC50 for CCc1cc(Cc2ccc(F)c(C(=O)N3CCN(C4CCCC4)C(=O)C3)c2)n[nH]c1=O [Example 30, trifluoroacetate]
stdout: < 0.05 µM

stdin: Read off the recorded CC50 for Cc1c(Cc2ccc(F)c(C(=O)N3CC(=O)N(c4cccc(Cl)c4)C(C)C3)c2)n[nH]c(=O)c1C (stereo not drawn)
stdout: < 0.05 µM

stdin: Read off the recorded CC50 for Cc1c(Cc2ccc(F)c(C(=O)N3CC(=O)N(C4CC(F)(F)C4)[C@@H](C)C3)c2)n[nH]c(=O)c1C
stdout: < 0.05 µM

stdin: Read off the recorded CC50 for CCN1C(=O)CN(C(=O)c2cc(Cc3n[nH]c(=O)c(C(F)(F)F)c3C)ccc2F)C[C@@H]1C
stdout: < 0.05 µM

stdin: Read off the recorded CC50 for Cc1c(Cc2ccc(F)c(C(=O)N3CCN(c4cccnc4)C(=O)C3)c2)n[nH]c(=O)c1C
stdout: 0.05 to 0.5 µM

stdin: Read off the recorded CC50 for Cc1c(Cc2ccc(F)c(C(=O)N3CCN(C4COC5(CCCC5)C4)C(=O)C3)c2)n[nH]c(=O)c1C (stereo not drawn) [Example 106, trifluoroacetate]
stdout: 0.05 to 0.5 µM

stdin: Read off the recorded CC50 for Cc1c(Cc2ccc(F)c(C(=O)N3CC(=O)N(C4CCC4)[C@@H](C)C3)c2)n[nH]c(=O)c1C
stdout: < 5 µM

stdin: Read off the recorded CC50 for Cc1c(Cc2ccc(F)c(C(=O)N3CC(=O)N(c4ccc(Cl)cc4F)[C@H](C)C3)c2)n[nH]c(=O)c1C
stdout: < 0.05 µM

stdin: Read off the recorded CC50 for Cc1c(Cc2ccc(F)c(C(=O)N3CC(=O)N(C4C[C@H]5CC[C@@H]4C5)C(C)C3)c2)n[nH]c(=O)c1C (stereo partly drawn) [Example 140, trifluoroacetate]
stdout: < 0.05 µM

stdin: Read off the recorded CC50 for Cc1c(Cc2ccc(F)c(C(=O)N3CC(=O)N(C4CCCOC4)C(C)C3)c2)n[nH]c(=O)c1C (stereo not drawn) [Example 129, trifluoroacetate]
stdout: 0.05 to 0.5 µM

stdin: Read off the recorded CC50 for Cc1c(Cc2ccc(F)c(C(=O)N3CCN(C4CCCCC4)C(=O)C3)c2)n[nH]c(=O)c1C(F)(F)F [Example 25, trifluoroacetate]
stdout: < 0.05 µM

stdin: Read off the recorded CC50 for Cc1c(Cc2ccc(F)c(C(=O)N3CC(=O)N(C4CCC(F)(F)CC4)C(C)C3)c2)n[nH]c(=O)c1C (stereo not drawn) [Example 126, trifluoroacetate]
stdout: < 0.05 µM

stdin: Read off the recorded CC50 for Cc1c(Cc2ccc(F)c(C(=O)N3CC(=O)N(C4CCC4)[C@H](C)C3)c2)n[nH]c(=O)c1C
stdout: < 0.05 µM

stdin: Read off the recorded CC50 for CCC1CN(C(=O)c2cc(Cc3n[nH]c(=O)c(C)c3C)ccc2F)CC(=O)N1C1CCCCC1 (stereo not drawn)
stdout: 0.05 to 0.5 µM
